Task for the reader: assign each of the following molecules its reported pIC50.
Target: mutEGFR (D770_N771insNPG, T790) (Homo sapiens, UniProt P00533, INS770NPG/T790M)
Construct: exact insNPG construct not described; in-house EGFR proteins were N-terminal GST fusions from baculovirus/insect cells (borders R669-A1210 given only for WT, insSVD, insASV)
Sequence (P00533 with tags, fused parts or gaps INS770NPG/T790M limits assumed): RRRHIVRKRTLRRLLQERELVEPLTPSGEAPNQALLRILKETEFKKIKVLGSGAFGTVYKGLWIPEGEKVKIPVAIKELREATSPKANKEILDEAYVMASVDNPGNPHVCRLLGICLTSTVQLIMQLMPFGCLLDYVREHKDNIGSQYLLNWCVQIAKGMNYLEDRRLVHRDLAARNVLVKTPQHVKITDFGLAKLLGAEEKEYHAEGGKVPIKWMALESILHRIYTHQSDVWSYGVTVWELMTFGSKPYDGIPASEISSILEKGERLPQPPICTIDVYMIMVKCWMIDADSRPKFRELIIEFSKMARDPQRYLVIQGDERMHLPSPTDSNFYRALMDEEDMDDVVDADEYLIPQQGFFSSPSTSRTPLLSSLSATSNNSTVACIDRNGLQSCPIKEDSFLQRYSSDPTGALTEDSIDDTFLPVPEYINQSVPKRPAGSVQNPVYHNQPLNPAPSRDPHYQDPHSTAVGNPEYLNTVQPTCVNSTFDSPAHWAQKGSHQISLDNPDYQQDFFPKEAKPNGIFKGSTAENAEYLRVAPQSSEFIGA
Assay: mutEGFR (D770_N771insNPG, T790) kinase assay
Assay type: biochemical
Conditions: Table 2a, D770_N771insNPG
pIC50 here: minus log base 10 of the concentration, concentration in moles per litre.

Lookup: Param readout= pIC50; system= mutEGFR (D770_N771insNPG, T790) (Homo sapiens, UniProt P00533, INS770NPG/T790M); entry= C=CC(=O)N1CCn2nc(-c3ccc(Cl)cc3F)c(-c3ccncc3)c2C1C (single isomer, unassigned; isomer 2) [Example 279] ; returns value.
Found: 7.21

Lookup: Form field: pIC50 recorded for CC(C)N(C)C/C=C/C(=O)N1CCn2nc(-c3ccc(F)cc3)c(-c3ccnc(NC(=O)C4CC4)c3)c2C1 with mutEGFR (D770_N771insNPG, T790) (Homo sapiens, UniProt P00533, INS770NPG/T790M) (enter value)
Found: 9.39

Lookup: Item Cc1c[nH]c2nccc(-c3c(-c4ccc(C(F)(F)F)cc4)nn4c3CN(C(=O)/C=C/CN(C)C)[C@@H](C)C4)c12 with mutEGFR (D770_N771insNPG, T790) (Homo sapiens, UniProt P00533, INS770NPG/T790M) - pIC50?
Found: 6.36

Lookup: Which measured pIC50 belongs to Cc1c[nH]c2nccc(-c3c(-c4cccc(C#N)c4)nn4c3CN(C(=O)/C=C/CN(C)C)[C@H](C)C4)c12 , tested on mutEGFR (D770_N771insNPG, T790) (Homo sapiens, UniProt P00533, INS770NPG/T790M)?
Found: 6.46

Lookup: What measured pIC50 is associated with C=CC(=O)N1CCn2nc(-c3ccc(OC)cc3)c(-c3ccnc4[nH]cc(C)c34)c2C1 on mutEGFR (D770_N771insNPG, T790) (Homo sapiens, UniProt P00533, INS770NPG/T790M)?
Found: 6.18

Lookup: Form field: pIC50 recorded for CN(C)C/C=C/C(=O)N1Cc2c(-c3ccncc3)c(-c3ccc(F)cc3)nn2CC1(C)C with mutEGFR (D770_N771insNPG, T790) (Homo sapiens, UniProt P00533, INS770NPG/T790M) (enter value)
Found: 6.79

Lookup: Recall the recorded pIC50 for COc1ccc(-c2nn3c(c2-c2ccncc2)CN(C(=O)/C=C/CN(C)C)CC3)cc1Cl with mutEGFR (D770_N771insNPG, T790) (Homo sapiens, UniProt P00533, INS770NPG/T790M) and state it.
Found: 8.52

Lookup: Notebook entry, mutEGFR (D770_N771insNPG, T790) (Homo sapiens, UniProt P00533, INS770NPG/T790M) assay: pIC50 of O=C(/C=C/CN1CCOCC1)N1CCn2nc(-c3ccc(F)cc3)c(-c3ccncc3)c2C1 = ?
Found: 8.05

Lookup: Enter reported pIC50 observed with mutEGFR (D770_N771insNPG, T790) (Homo sapiens, UniProt P00533, INS770NPG/T790M) for CN(C)CC#CC(=O)N1CCn2nc(-c3ccc(F)cc3)c(-c3ccncc3)c2C1
Found: 9.02

Lookup: // map CC(C)N(C)C/C=C/C(=O)N1CCn2nc(-c3ccc(F)cc3)c(-c3ccncc3)c2C1 to recorded pIC50 (system: mutEGFR (D770_N771insNPG, T790) (Homo sapiens, UniProt P00533, INS770NPG/T790M))
Found: 8.75

Lookup: Give the reported pIC50 for O=C(C#CCN1CCOCC1)N1CCn2nc(-c3ccc(F)cc3)c(-c3ccncc3)c2C1 (system: mutEGFR (D770_N771insNPG, T790) (Homo sapiens, UniProt P00533, INS770NPG/T790M)).
Found: 7.92

Lookup: Request body: readout pIC50, system mutEGFR (D770_N771insNPG, T790) (Homo sapiens, UniProt P00533, INS770NPG/T790M), query C=CC(=O)N1Cc2c(-c3ccncc3)c(-c3cccc(C#N)c3)nn2C[C@H]1C . Return the value.
Found: 8.34

Lookup: Please state recorded pIC50 (tested on mutEGFR (D770_N771insNPG, T790) (Homo sapiens, UniProt P00533, INS770NPG/T790M)) of C=CC(=O)N1Cc2c(-c3ccnc4[nH]cc(C)c34)c(-c3ccc(F)cc3)nn2C[C@@H]1C
Found: 8.14

Lookup: Which measured pIC50 belongs to C=CC(=O)N1CCn2nc(-c3ccc(F)cc3)c(-c3ccnc4[nH]ccc34)c2C1C (single isomer, unassigned; isomer 1) [Example 249] , tested on mutEGFR (D770_N771insNPG, T790) (Homo sapiens, UniProt P00533, INS770NPG/T790M)?
Found: 7.24

Lookup: Could you share what pIC50 was measured for C=CC(=O)N1CCn2nc(-c3ccc(F)cc3)c(-c3ccnc4[nH]cc(C)c34)c2C1C (single isomer, unassigned; isomer 2) [Example 250] , tested on mutEGFR (D770_N771insNPG, T790) (Homo sapiens, UniProt P00533, INS770NPG/T790M)?
Found: 6.67

Lookup: // lookup pIC50 | system=mutEGFR (D770_N771insNPG, T790) (Homo sapiens, UniProt P00533, INS770NPG/T790M) | key= CN(C)C/C=C/C(=O)N1CCn2nc(-c3ccc(C(F)F)cc3)c(-c3ccncc3)c2C1
Found: 8.04

Lookup: Short answer please: pIC50, mutEGFR (D770_N771insNPG, T790) (Homo sapiens, UniProt P00533, INS770NPG/T790M), entry COc1ccc(-c2nn3c(c2-c2ccnc4[nH]cc(C)c24)CN(C(=O)/C=C/CN(C)C)CC3)cc1
Found: 5.85

Lookup: Given the entry C=CC(=O)N1Cc2c(-c3ccnc4[nH]cc(C)c34)c(-c3cccc(C#N)c3)nn2C[C@@H]1C , what pIC50 was observed with mutEGFR (D770_N771insNPG, T790) (Homo sapiens, UniProt P00533, INS770NPG/T790M)?
Found: 7.52

Lookup: So what pIC50 did Cc1c[nH]c2nccc(-c3c(-c4cccc(C#N)c4)nn4c3CN(C(=O)/C=C/CN(C)C)[C@@H](C)C4)c12 get with mutEGFR (D770_N771insNPG, T790) (Homo sapiens, UniProt P00533, INS770NPG/T790M)?
Found: 7.27

Lookup: // map C=CC(=O)N1Cc2c(-c3ccncc3)c(-c3ccc(Cl)cc3)nn2C(C)(C)C1 to recorded pIC50 (system: mutEGFR (D770_N771insNPG, T790) (Homo sapiens, UniProt P00533, INS770NPG/T790M))
Found: 9.16

Lookup: Give recorded pIC50 with mutEGFR (D770_N771insNPG, T790) (Homo sapiens, UniProt P00533, INS770NPG/T790M) for the following molecule: CN(C)C/C=C/C(=O)N1Cc2c(-c3ccncc3)c(-c3ccc(F)cc3)nn2C(CCO)C1 (racemic)
Found: 8.92

Lookup: What pIC50 appears in the records for this molecule with mutEGFR (D770_N771insNPG, T790) (Homo sapiens, UniProt P00533, INS770NPG/T790M)? C=CC(=O)N1CCn2nc(-c3ccc(C#N)cc3)c(-c3ccnc4[nH]cc(C)c34)c2C1
Found: 5.97

Lookup: pIC50 / mutEGFR (D770_N771insNPG, T790) (Homo sapiens, UniProt P00533, INS770NPG/T790M) / C=CC(=O)N1CCn2nc(-c3cccc4ccoc34)c(-c3ccncc3)c2C1
Found: 9.25

Lookup: Item C/C=C/C(=O)N1CCn2nc(-c3ccc(F)cc3)c(-c3ccncc3)c2C1 with mutEGFR (D770_N771insNPG, T790) (Homo sapiens, UniProt P00533, INS770NPG/T790M) - pIC50?
Found: 6.09

Lookup: API: value(readout=pIC50, system=mutEGFR (D770_N771insNPG, T790) (Homo sapiens, UniProt P00533, INS770NPG/T790M)) for record O=C(/C=C/CN1CCCC1)N1CCn2nc(-c3ccc(Cl)cc3)c(-c3ccncc3)c2C1
Found: 9.39

Lookup: mutEGFR (D770_N771insNPG, T790) (Homo sapiens, UniProt P00533, INS770NPG/T790M) / pIC50 / CN(C)C/C=C/C(=O)N1CCn2nc(-c3ccc(F)cc3)c(-c3ccnc(NC(=O)C4CC4)c3)c2C1 : value?
Found: 9.12

Lookup: Can you look up pIC50 on mutEGFR (D770_N771insNPG, T790) (Homo sapiens, UniProt P00533, INS770NPG/T790M) for C=CC(=O)N1CCn2nc(-c3ccc4cc[nH]c4c3)c(-c3ccncc3)c2C1C (racemic) ?
Found: 9.18

Lookup: Record C=CC(=O)N1CCn2nc(-c3ccc(OCC)cc3)c(-c3ccncc3)c2C1 : what is its pIC50 with mutEGFR (D770_N771insNPG, T790) (Homo sapiens, UniProt P00533, INS770NPG/T790M)?
Found: 7.34

Lookup: Item CC1c2c(-c3ccnc4[nH]ccc34)c(-c3ccc(C(F)(F)F)cc3)nn2CCN1C(=O)/C=C/CN(C)C (single isomer, unassigned; isomer 1) [Example 264] with mutEGFR (D770_N771insNPG, T790) (Homo sapiens, UniProt P00533, INS770NPG/T790M) - pIC50?
Found: 5.95

Lookup: What is its pIC50 for mutEGFR (D770_N771insNPG, T790) (Homo sapiens, UniProt P00533, INS770NPG/T790M)? Entry: CN(C)C/C=C/C(=O)N1CCn2nc(-c3ccc4nn[nH]c4c3)c(-c3ccncc3)c2C1
Found: 5.97
